Reference source: PubChem BioAssay (NCI)

- Tested on: OVCAR-8 ovarian
- test-details: NCI-60 one-dose screen, 48 h (100 = growth as untreated, 0 = no growth, -100 = all killed)
- details: 10 µM unless noted
The panel holds about 83,000 compounds, 20% with a hit somewhere; the sample as a whole holds those more often.
Use 90% as the dividing line for growth, with the line itself on the fulfilled side and lower values as not fulfilled.

Examples from the recorded data:
molecule	label
CCCCCCCCCCCCCCCCCC1=NCCN1CCOC1=C(Cl)C(=O)c2ccccc2C1=O	not fulfilled
Cc1nc2ccccc2c(/C=C/c2ccc(Cl)cc2)c1C(=O)/C=C/c1ccc(F)cc1	not fulfilled
O=C(NC(CSSCC(NC(=O)c1ccccc1)C(=O)O)C(=O)O)c1ccccc1 (stereo unspecified)	fulfilled
O=C1Nc2ccccc2/C1=C/c1cn(C(=O)c2c(Cl)cccc2Cl)c2ccccc12	not fulfilled
C[C@H]1[C@H]2[C@H]3CC[C@@H]4[C@@]5(C)C/C(=C/c6cccnc6)C(=O)C(C)(C)[C@@H]5CC[C@@]4(C)[C@]3(C)CC[C@]23CO[C@]1(C)[C@@H](C(=O)/C=C\c1cccnc1)C3	not fulfilled
COc1ccc(N=C(c2ccccc2)C2C(=O)c3ccccc3C2=O)cc1	not fulfilled
COc1ccc2c(c1)O/C(=C/c1ccc(OCC(=O)c3ccccc3)cc1)C2=O	fulfilled
CCSC1=NC2C(N(CC)C(=O)N2CC)N1/N=C/C=C/c1ccccc1[N+](=O)[O-] (stereo unspecified)	not fulfilled

Pending molecule:
Item COCCN(C(=O)c1ccc(F)cc1F)c1c(N)n(Cc2ccccc2)c(=O)[nH]c1=O with growth of 90% or above?
fulfilled

----------
- Test system: HT29 colon
- test-details: NCI-60 one-dose screen, 48 h (100 = growth as untreated, 0 = no growth, -100 = all killed)
- details: 10 µM unless noted
This is part of a sample that, as a whole, favours compounds with a hit. Of some 83,000 tested, about 20% had one in any assay.
Give growth for every item shown.
One number for each entry, in %.

molecule	experimental-target	assay-result
CCCCN(CCCC)CC(C)(C)C(O)c1ccc(OC)c2ccccc12 (stereo not given)	HT29 colon	9.09
COc1cccc(-c2nc3sccn3c2/C=C/C(=O)c2ccc(C(F)(F)F)cc2)c1	HT29 colon	75.3
N=C(N)c1ccc(-c2ccc(-c3cncc4ccccc34)s2)s1	HT29 colon	-77.1
COc1cc(C2CC(c3cc(OC)c(OCCCOc4ccc(-n5c(/C=C/c6ccccc6)nc6ccccc6c5=O)cc4)c(OC)c3)=NO2)cc(OC)c1OC (stereo not given)	HT29 colon	104
Nc1ccc2c(c1)c(N)nn2C(=O)Nc1ccc(Cc2ccccc2)cc1	HT29 colon	76.8
COc1cc(/C=N/NC(=O)Cn2c(C(C)C)nc3ccccc32)ccc1O	HT29 colon	98.2
CNC(=O)CCN1CCN(CC/C=C2\c3ccccc3Sc3ccc(Cl)cc32)CC1	HT29 colon	58.2
NCCCNc1nc2ccccc2c2c(=O)c3cccc(Cl)c3sc12	HT29 colon	-63.2

Hey, can you go through the list below and give me growth for every item?
1. O=C(/C=C/c1ccco1)c1ccc(Nc2nc(Nc3ccc(F)cc3)nc(Nc3ccc(Cl)cc3)n2)cc1
2. Cc1ccc(NCCN(C)C)c2c(=O)c3ccccc3sc12
3. O=C1C=C[C@]2(C[C@@H](c3cccc(C(F)(F)F)c3)O[C@@H](c3cccc(C(F)(F)F)c3)O2)O1
4. COc1cc(Cn2ncc3ccc(NC(=O)c4cc5ccccc5oc4=N)cc32)cc(OC)c1OC
5. COCCc1ccc(OCC(O)CNC(C)C)cc1 (stereo not given)

1. 61.8
2. -38.3
3. -24.2
4. 15.8
5. 98.9

// each molecule listed below needs its growth
1. O=[N+]([O-])c1ccc(C2CC(c3ccccc3)=Nc3ccccc3S2)cc1 (stereo not given)
2. Cc1ccc2nc3ccccc3c(NCc3ccccc3)c2c1
3. Cc1ccc(/C=C/c2c(C(=O)/C=C/c3ccc(C(F)(F)F)cc3)c(C)nc3ccccc23)cc1
4. Cc1c(O)cc(-c2cnc(N/N=C\c3ccc(Cl)cc3)s2)c(O)c1C
5. COc1cc(-c2nn(-c3ccccc3)cc2-c2ccnc(NCCNS(=O)(=O)c3ccc(Cl)cc3)n2)ccc1Cl
6. Cc1ccc(C(=O)COc2cccc(/C=C3\Oc4ccccc4C3=O)c2)cc1
7. COC(=O)c1ccc(C2Nc3ccc(S(=O)(=O)Nc4ccc(C)c(C)c4)cc3C3OCCC23)cc1 (stereo not given)

1. 97.4
2. 11.6
3. 5.36
4. 101
5. 11.3
6. 114
7. 83.7

I have 4 molecules here; please give me growth for each one.
1. COc1ccc2c(c1)O/C(=C\c1cccc(OCC(=O)Nc3nc(C)c(C)s3)c1)C2=O
2. Clc1ccc(-c2c3ccc(=[N+]4CCCCC4)cc-3oc3cc(N4CCCCC4)ccc23)cc1
3. COc1ccc(/C=C/c2c(C(=O)/C=C/c3ccc(F)cc3)c(C)nc3ccccc23)cc1
4. NC(N)=Nc1nc2ccccc2n2c1nc1ccccc12

[-29.9, -82.3, 23.6, 18.2]

Working through the 5 molecules below one at a time, give growth for each.
1. CC(C)CC(NC(=O)CN(Cc1ccccc1)S(C)(=O)=O)C(=O)O (stereo not given)
2. CN(C)CCCn1c(=O)c2ccccc2c2ccccc21
3. Cc1ccc(S(=O)(=O)n2cc(CNc3ccc(N4CCOCC4=O)cc3)c3ccccc32)cc1
4. COC(=O)[C@]12CC[C@@H](C)[C@H](C)[C@@H]1C1=CC[C@@H]3[C@@]4(C)C(C=O)=C[C@@](C)(COC(C)=O)[C@@H]4C(=O)C[C@@]3(C)[C@]1(C)CC2
5. CCCCCCCCCCN(CCCCCCCCCC)CC(=O)c1ccc2cc(Br)c3ccccc3c2c1

1. 97.4
2. 50
3. 89.1
4. 23.8
5. 3.77

For every record below, what is its growth?
1. C[C@H]1[C@H]2[C@H]3CC[C@@H]4[C@@]5(C)C/C(=C/c6cccnc6)C(=O)C(C)(C)[C@@H]5CC[C@@]4(C)[C@]3(C)CC[C@]23CO[C@]1(C)[C@@H](C(=O)/C=C\c1cccnc1)C3
2. Cc1ccc(C(=NN=C(N)N)c2ccc(C)cc2)cc1
3. CSc1n(Cc2ccc3ccccc3c2)c(C)c[n+]1Cc1ccc2ccccc2c1

[26.4, 0.831, -11.2]

Look up growth for the entries below, preserving their order.
1. N#Cc1c2c(nn(-c3ccccc3)c1=O)C(O)=C([N+](=O)[O-])C(c1ccccc1)C2 (stereo not given)
2. CC1(C)CC(=O)C2=C(C1)N(c1ccc(OC(F)(F)F)cc1)C(N)=C(C#N)C2c1ccc(Cl)cc1 (stereo not given)
3. Cc1cccc(NC(=O)N/C(N)=N/c2nc(C)c(C)s2)c1

94.1
87.2
18.9

----------
- Tested on: K-562 leukemia
- test-details: NCI-60 one-dose screen, 48 h
- details: 10 µM unless noted
About 83,000 compounds went through this panel and 20% of them were active in at least one assay; those are over-represented in the sample as a whole. Active and inactive are the calls of the source. Rule for the calls: active = growth percent below 10; inactive = the rest.
Lab note: assign the record to one of active, inactive

The following compounds have reported results that may help.
> print(dat)
                           substance.smiles  experimental.target     label
1  COc1ccc(C(=O)COc2ccc(/C=C3\Oc4ccccc4C3=O)cc2)cc1       K-562 leukemia  inactive
2  Cc1ccccc1NC(=O)N/C(N)=N/c1nc(-c2cccc([N+](=O)[O-])c2)cs1       K-562 leukemia    active

Kindly consider the entry below.
Kindly provide the recorded test outcome for the following compound: O=C(c1ccccc1)c1c(/C=C/c2ccccc2)nc2ccccc2c1/C=C/c1ccc(Br)cc1
inactive

----------
Field: growth. Provide a value for each of the molecules that follow.
- System: SF-268 CNS
- test-details: NCI-60 one-dose screen, 48 h (100 = growth as untreated, 0 = no growth, -100 = all killed)
- details: 10 µM unless noted
The panel holds about 83,000 compounds, 20% with a hit somewhere; the sample as a whole holds those more often. Active and inactive are the calls of the source. Rule for the calls: active = growth percent below 10; inactive = the rest.

Worked examples, 6 molecules total:
> print(dat)
                                   molecule  reported.metric               assay.result
1  O=C(COc1ccc(/C=C2\Oc3ccccc3C2=O)cc1)Nc1nc2c(s1)CCCC2           growth            -9.96% (active)
2    C#Cc1cccc(NC(=O)c2ccc(NC(=O)CCl)cc2)c1           growth  -8.76% [8.25 µM] (active)
3  CCN1C(=O)N(CC)C2Nn3c(s/c(=C\c4cccc([N+](=O)[O-])c4)c3=O)=NC21 (stereo unspecified)           growth           63.9% (inactive)
4  O=C(Nc1ccc(Nc2ccncc2)cc1)c1ccc(C(=O)Nc2ccc(Nc3ccncc3)cc2)cc1           growth             75% (inactive)
5  Cn1c2c(c3ccc(Cl)c(Cl)c31)C(C#N)C1(CCNCC1)NC2=O (stereo unspecified)           growth           48.6% (inactive)
6  CCCCC1CCCCN1C(=O)OCC (stereo unspecified)           growth            106% (inactive)

I'm hoping you can list growth for every molecule here, please.
1. N#Cc1c(N)nc2c(C#N)c(NC(=O)c3ccccc3)nn2c1-c1ccccc1
2. O=C1/C(=C2/C=Nc3ccccc32)N(O)c2ccccc21
3. Fc1ccc(CNc2c3ccccc3nc3ccccc23)cc1F
4. COc1cccc(-c2nn(-c3ccccc3)cc2-c2ccnc(NCCCNC(=O)c3ccccc3)c2)c1

1. 86.2% (inactive)
2. 76% (inactive)
3. 57.2% (inactive)
4. 66.2% (inactive)

Entry under test: C#CCOc1nc(C)cc(C)c1C#N . Its growth was 99.6% (inactive)
